target: Cyclin-dependent kinase 2 (Homo sapiens); assay: Inhibition of human recombinant CDK2 by radiometric kinase assay
value.type: IC50

Reported Cyclin-dependent kinase 2 (Homo sapiens) IC50 for item CN1CCN(c2ccc(Nc3ncc4nc(Nc5ccccc5)n(C5CCCC5)c4n3)cc2)CC1 was > 10 µM

====

biological target: Serine/threonine-protein kinase WNK1 (Homo sapiens, UniProt Q9H4A3); experiment: Inhibition of human recombinant WNK1 by radiometric kinase assay
Sequence (Q9H4A3 whole entry): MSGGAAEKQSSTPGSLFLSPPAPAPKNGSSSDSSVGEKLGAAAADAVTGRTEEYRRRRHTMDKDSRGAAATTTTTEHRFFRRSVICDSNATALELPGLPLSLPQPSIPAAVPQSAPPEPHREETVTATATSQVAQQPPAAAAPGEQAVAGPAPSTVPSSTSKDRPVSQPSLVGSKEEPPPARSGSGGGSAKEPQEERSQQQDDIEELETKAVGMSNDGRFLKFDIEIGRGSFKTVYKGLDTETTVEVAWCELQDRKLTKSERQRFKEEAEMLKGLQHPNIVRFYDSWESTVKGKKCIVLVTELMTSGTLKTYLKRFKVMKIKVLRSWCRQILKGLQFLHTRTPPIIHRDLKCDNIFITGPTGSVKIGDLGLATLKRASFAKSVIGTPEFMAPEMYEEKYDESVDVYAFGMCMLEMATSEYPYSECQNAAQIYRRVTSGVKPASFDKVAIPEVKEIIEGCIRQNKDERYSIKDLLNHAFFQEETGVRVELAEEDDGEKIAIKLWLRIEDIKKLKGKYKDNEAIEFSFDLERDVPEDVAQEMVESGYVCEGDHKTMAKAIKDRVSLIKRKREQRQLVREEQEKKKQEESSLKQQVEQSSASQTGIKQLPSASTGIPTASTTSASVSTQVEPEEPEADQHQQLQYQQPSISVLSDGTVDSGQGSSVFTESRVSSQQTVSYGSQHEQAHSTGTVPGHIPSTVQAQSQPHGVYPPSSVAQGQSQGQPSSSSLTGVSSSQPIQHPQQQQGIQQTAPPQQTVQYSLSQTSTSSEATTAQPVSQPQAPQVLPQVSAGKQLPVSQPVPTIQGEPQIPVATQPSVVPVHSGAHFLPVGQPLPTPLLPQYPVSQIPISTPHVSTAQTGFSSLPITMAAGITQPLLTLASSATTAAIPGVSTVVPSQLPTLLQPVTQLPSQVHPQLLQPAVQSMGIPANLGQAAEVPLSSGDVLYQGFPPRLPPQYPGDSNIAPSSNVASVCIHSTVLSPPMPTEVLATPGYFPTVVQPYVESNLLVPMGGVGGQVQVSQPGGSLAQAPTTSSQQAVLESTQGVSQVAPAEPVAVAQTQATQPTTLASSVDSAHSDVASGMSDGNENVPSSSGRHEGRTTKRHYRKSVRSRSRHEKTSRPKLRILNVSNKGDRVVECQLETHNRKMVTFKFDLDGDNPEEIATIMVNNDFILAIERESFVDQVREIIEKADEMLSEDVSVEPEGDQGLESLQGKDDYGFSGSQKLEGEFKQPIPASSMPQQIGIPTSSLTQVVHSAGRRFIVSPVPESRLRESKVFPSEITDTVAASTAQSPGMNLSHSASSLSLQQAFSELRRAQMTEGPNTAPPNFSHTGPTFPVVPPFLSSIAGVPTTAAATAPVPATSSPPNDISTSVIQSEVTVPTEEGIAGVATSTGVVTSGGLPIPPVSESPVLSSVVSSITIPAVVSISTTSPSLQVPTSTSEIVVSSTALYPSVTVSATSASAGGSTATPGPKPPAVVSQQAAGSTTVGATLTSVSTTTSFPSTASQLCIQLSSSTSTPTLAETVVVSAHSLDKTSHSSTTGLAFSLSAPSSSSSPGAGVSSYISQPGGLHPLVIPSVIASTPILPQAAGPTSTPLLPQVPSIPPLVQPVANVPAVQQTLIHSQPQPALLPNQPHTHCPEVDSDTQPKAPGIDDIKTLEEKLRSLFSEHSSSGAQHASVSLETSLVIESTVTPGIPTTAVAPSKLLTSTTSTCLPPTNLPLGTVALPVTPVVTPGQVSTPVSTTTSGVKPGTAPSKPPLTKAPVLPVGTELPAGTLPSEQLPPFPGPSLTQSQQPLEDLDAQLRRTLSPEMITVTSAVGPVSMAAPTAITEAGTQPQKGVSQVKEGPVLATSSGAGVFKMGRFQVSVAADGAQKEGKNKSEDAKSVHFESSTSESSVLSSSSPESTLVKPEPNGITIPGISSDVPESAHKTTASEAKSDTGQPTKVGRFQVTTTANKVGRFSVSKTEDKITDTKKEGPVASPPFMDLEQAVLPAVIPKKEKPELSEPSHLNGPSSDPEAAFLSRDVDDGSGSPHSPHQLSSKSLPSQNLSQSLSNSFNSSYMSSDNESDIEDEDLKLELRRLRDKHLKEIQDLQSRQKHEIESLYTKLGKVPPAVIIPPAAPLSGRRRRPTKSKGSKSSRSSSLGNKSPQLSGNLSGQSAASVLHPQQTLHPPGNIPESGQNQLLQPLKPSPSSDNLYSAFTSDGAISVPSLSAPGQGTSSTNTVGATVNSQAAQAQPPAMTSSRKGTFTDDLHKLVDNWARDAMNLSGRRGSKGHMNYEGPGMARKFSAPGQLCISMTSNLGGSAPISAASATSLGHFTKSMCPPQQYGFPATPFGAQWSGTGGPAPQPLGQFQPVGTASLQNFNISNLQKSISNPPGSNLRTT
value.type: IC50

Lab note: molecule CN1CCN(c2ccc(Nc3ncc4nc(Nc5ccccc5)n(C5CCCC5)c4n3)cc2)CC1 tested on Serine/threonine-protein kinase WNK1 (Homo sapiens, UniProt Q9H4A3); recorded IC50 was > 10 µM
